Target or system Cathepsin S (Homo sapiens, UniProt P25774); metric Ki; compiled from varied reports.
Expressed in nM, but write only the number.

Under Cathepsin S (Homo sapiens, UniProt P25774): report Ki of CCOCC(=O)[C@H](CCc1ccccc1)NC(=O)[C@H](CC(C)C)NC(=O)OCc1ccccc1 .
4500

Under Cathepsin S (Homo sapiens, UniProt P25774): report Ki of CCC[C@H](NC(=O)C1(NC(=O)c2ccc(OC(F)(F)F)cc2)CCCCC1)C(=O)c1nnc(C(C)C)o1 .
800

Under Cathepsin S (Homo sapiens, UniProt P25774): report Ki of CS(=O)(=O)CC[C@@H](CNc1ccc(OC(F)(F)F)cc1)NC(=O)[C@H](CC1CCCCC1)NC(=O)N1CCOCC1 .
5

Under Cathepsin S (Homo sapiens, UniProt P25774): report Ki of CCC(C)[C@H](NC(=O)c1cccc(C(N)=O)c1)C(=O)N[C@@H](CCc1ccccc1)C(=O)CO (stereo not given in full) .
88

Under Cathepsin S (Homo sapiens, UniProt P25774): report Ki of CCCC[C@H](NC(=O)OC(C)(C)C)C(=O)NCC#N .
550

----------
Target or system Cathepsin S (Homo sapiens); metric Ki; compiled from varied reports.
Expressed in nM, but write only the number.

Give a short answer stating reported Ki for CC(C)C[C@H](NC(=O)Nc1ccccc1)C(=O)N(C)N(C)C#N .
0.16

Give a short answer stating reported Ki for CC(C)[C@@H](CNc1ccc(OC(F)(F)F)cc1)NC(=O)[C@H](CCC1CCCC1)CC(=O)N1CCOCC1 .
11

Give a short answer stating reported Ki for CN[C@@H](CC(C)C)C(=O)N1CC(=O)[C@@H](NC(=O)[C@H](CC(C)C)NC(=O)OCc2ccccc2)C1 .
290

Give a short answer stating reported Ki for C[C@@H](CNc1ccc(OC(F)(F)F)cc1)NC(=O)[C@H](CC1CCCCC1)NC(=O)O[C@H]1CCOC1 .
49

----------
Target or system Cathepsin S (Homo sapiens); metric pKi; compiled from varied reports.
Quick note: pKi means taking -log10 of the concentration in moles per liter.

Under Cathepsin S (Homo sapiens): report pKi of CC(C)[C@@H](CNc1ccc(OC(F)(F)F)cc1)NC(=O)[C@@H](CC(=O)N1CCOCC1)CC1CCCC1 .
7.42

Under Cathepsin S (Homo sapiens): report pKi of CCC[C@H](NC(=O)C1(NC(=O)c2ccc(OC(F)(F)F)cc2)CCCCC1)C(=O)c1nnc(-c2ccccc2)o1 .
4.35

Under Cathepsin S (Homo sapiens): report pKi of C[C@@H](CNc1ccc(OC(F)(F)F)cc1)NC(=O)[C@H](CC1CCCC1)NC(=O)N1CCOCC1 .
7.31

Under Cathepsin S (Homo sapiens): report pKi of N#CCNC(=O)[C@H](Cc1ccccc1)NC(=O)c1ccc(-c2ccccc2)cc1 .
6.62

----------
Target or system Cathepsin S (Homo sapiens, UniProt P25774); metric Ki; compiled from varied reports.
Classification by Ki | ranges: low end: < 60 nM; middle: ≥ 60 nM and < 400 nM; high end: ≥ 400 nM

Could you tell me which band CC(C)C[C@H](NC(=O)OC(C)(C)C)C(=O)NCC#N belongs to?
middle

Could you tell me which band CCC(C)[C@H](NC(=O)c1cccc(CN)c1)C(=O)N[C@@H](CCc1ccccc1)C(=O)CO (stereo partly specified) belongs to?
middle

Could you tell me which band O=C(N[C@@H](CC1CCCCC1)C(=O)NCCNc1ccc(OC(F)(F)F)cc1)c1ccc(-c2cccc(C(F)(F)F)c2)o1 belongs to?
low end

Could you tell me which band CC(C)C[C@H](NC(=O)c1cc2ccccc2o1)C(=O)N[C@H]1C[C@@H](C)CN(S(=O)(=O)c2ccccn2)CC1=O belongs to?
middle

Could you tell me which band CC[C@@H](C)[C@H](NC(=O)OC(C)(C)C)C(=O)NCC#N belongs to?
high end

Could you tell me which band CC(C)C[C@H](NC(=O)OCc1ccccc1)C(=O)NCC#N belongs to?
middle

Could you tell me which band CC(C)(C)OC(=O)N[C@@H](Cc1ccc(-c2ccccc2)cc1)C(=O)NCC#N belongs to?
high end

Could you tell me which band CC(C)(C)OC(=O)N[C@@H](CC1CC1)C(=O)NCC#N belongs to?
high end

Could you tell me which band CC(=O)N[C@@H](Cc1ccccc1)C(=O)NCC#N belongs to?
high end

Could you tell me which band CC(C)C[C@H](NC(=O)NCc1ccccc1)C(=O)N(C)N(C)C#N belongs to?
low end

Could you tell me which band CC(C)C[C@H](NC(=O)Nc1ccc(-c2noc(-c3cccs3)n2)cc1)C(=O)N(C)N(C)C#N belongs to?
low end

Could you tell me which band CC(C)(C)OC(=O)N[C@@H](Cc1c[nH]c2ccccc12)C(=O)NCC#N belongs to?
middle

Could you tell me which band O=C(N[C@@H](Cc1ccc2ccccc2c1)C(=O)N[C@H]1CCCN(S(=O)(=O)c2ccccn2)CC1=O)c1cccc2ccccc12 belongs to?
low end

Could you tell me which band C[C@H](NC(=O)OCc1ccccc1)C(=O)N(C)N(C)C#N belongs to?
low end

Could you tell me which band CCC[C@H](NC(=O)OC(C)(C)C)C(=O)c1nnc(-c2cccs2)o1 belongs to?
high end

Could you tell me which band CC(C)C[C@H](NC(=O)c1ccc(-c2noc(-c3cccs3)n2)cc1)C(=O)N(C)N(C)C#N belongs to?
low end

Could you tell me which band CN(C#N)N(C)C(=O)CNC(=O)OCc1ccccc1 belongs to?
high end

Could you tell me which band CC(C)C[C@H](NC(=O)OCc1ccccc1)C(=O)N[C@@H](CCc1ccccc1)C(=O)CO belongs to?
middle

Could you tell me which band CC(C)(C)OC(=O)N[C@@H](COCc1ccccc1)C(=O)NCC#N belongs to?
high end

Could you tell me which band CCC(C)[C@H](NC(=O)OCc1ccccc1)C(=O)N[C@@H](CCc1ccccc1)C(=O)CO (stereo partly specified) belongs to?
high end

Could you tell me which band CC(C)C[C@H](NC(=O)c1cc2cc(OCCN3CCOCC3)ccc2o1)C(=O)N[C@H]1CCCN(C(=O)Cc2cccc(-c3ccccn3)c2)CC1=O belongs to?
low end

Could you tell me which band CC(C)C[C@H](NC(=O)OCc1ccccc1)C(=O)NC1COCC1=O (stereo partly specified) belongs to?
middle

Could you tell me which band Cc1ccc([C@H](CC(=O)N2CCOCC2)C(=O)N[C@H](CNc2ccc(OC(F)(F)F)cc2)C(C)C)cc1 belongs to?
middle

Could you tell me which band CC(=O)N1CC(=O)C(NC(=O)[C@H](CC(C)C)NC(=O)OCc2ccccc2)C1 (stereo partly specified) belongs to?
high end

Could you tell me which band O=C(COc1ccccc1F)NCCc1nc2ccccc2[nH]1 belongs to?
middle

Could you tell me which band CC(C)(C)OC(=O)N[C@@H](Cc1ccc(O)cc1)C(=O)NCC#N belongs to?
high end

Could you tell me which band Cc1nc(-c2ccc(NC(=O)N[C@@H](CC(C)C)C(=O)N(C)N(C)C#N)cc2)no1 belongs to?
low end

Could you tell me which band O=C(N[C@@H](Cc1ccccc1)C(=O)N[C@H]1CCCN(S(=O)(=O)c2ccccn2)CC1=O)c1cc2ccccc2o1 belongs to?
low end

Could you tell me which band CS(=O)(=O)CC[C@@H](CNc1ccc(OC(F)(F)F)cc1)NC(=O)[C@@H](CC(=O)N1CCOCC1)CC1CCCCC1 belongs to?
low end

Could you tell me which band CCC[C@H](NC(=O)OCC(C)C)C(=O)c1nnc(-c2ccco2)o1 belongs to?
middle

----------
Target or system Cathepsin S (Homo sapiens); metric pKi; compiled from varied reports.
pKi: −log10 of the molar value.
If the reported pKi equals or exceeds 7, assign 1.0. If not, assign 0.0.

Item CC(C)C[C@@H](C(=O)NC1CN(C(=O)[C@H](CC(C)C)N(C)C(=O)OCc2ccccc2)CC1=O)N(C)C(=O)OCc1ccccc1 (some centres undefined) with pKi of 7 or above?
1.0

Item CC(C)(C)OC(=O)N[C@@H](Cc1cccc(F)c1)C(=O)NCC#N with pKi of 7 or above?
0.0

Item C[C@@H](CNc1ccc(OC(F)(F)F)cc1)NC(=O)[C@H](CC1CCCCC1)NC(=O)[C@@H]1CCCO1 with pKi of 7 or above?
1.0

Item CC(C)C[C@H](NC(=O)OCc1ccccc1)C(=O)NC1CCOCC1O (some centres undefined) with pKi of 7 or above?
0.0

Item CC(C)C[C@@H](C(=O)NCC#N)c1cccc(-c2cccc(-c3csc(N4CCN(C(C)(C)C)CC4)n3)c2)c1 with pKi of 7 or above?
0.0

Item CC(C)C[C@@H](C(=O)NCC#N)c1cccc(-c2ccc(N3CCNCC3)cc2)c1 with pKi of 7 or above?
0.0

Item O=C(NCCNc1ccc(F)cc1)[C@@H](CC(=O)N1CCOCC1)CC1CCCCC1 with pKi of 7 or above?
0.0

Item CCC[C@H](NC(=O)Cc1ccccc1)C(=O)c1nnc(-c2ccco2)o1 with pKi of 7 or above?
0.0

Item CC(C)[C@@H](CNc1ccc(OC(F)(F)F)cc1)NC(=O)[C@H](CCCc1ccccc1)CC(=O)N1CCOCC1 with pKi of 7 or above?
1.0

Item O=C(N[C@@H](CCc1ccccc1)CNc1ccc(OC(F)(F)F)cc1)[C@@H](CC(=O)N1CCOCC1)c1ccccc1 with pKi of 7 or above?
1.0

Item CC(C)[C@@H](CNc1ccc(OC(F)(F)F)cc1)NC(=O)[C@@H](CC(=O)N1CCOCC1)c1ccc(F)cc1 with pKi of 7 or above?
1.0

Item CC(C)C[C@H](NC(=O)NCc1ccc(-c2noc(-c3cccs3)n2)cc1)C(=O)N(C)N(C)C#N with pKi of 7 or above?
1.0

Item CC(C)C[C@@H](C(=O)NCC#N)N(C)C(=O)c1ccc(-c2noc(-c3cccs3)n2)cc1 with pKi of 7 or above?
0.0

Item CC(C)C[C@H](NC(=O)OCc1ccccc1)C(=O)NC1CCN(C(=O)[C@H](CC(C)C)NC(=O)OCc2ccccc2)CC1=O (some centres undefined) with pKi of 7 or above?
1.0

Item CN(C#N)N(C)C(=O)[C@H](Cc1ccc(O)cc1)NC(=O)OCc1ccccc1 with pKi of 7 or above?
1.0

Item CC(C)(C)OC(=O)N[C@@H](Cc1c(F)c(F)c(F)c(F)c1F)C(=O)NCC#N with pKi of 7 or above?
0.0

Item CCC[C@H](NC(=O)[C@H](CC(C)C)NCC(F)(F)F)C(=O)c1nnc(-c2ccco2)o1 with pKi of 7 or above?
0.0

Item C[C@H](NC(=O)OC(C)(C)C)C(=O)NCC#N with pKi of 7 or above?
0.0

Item CC(C)[C@@H](CNc1ccc(OC(F)(F)F)cc1)NC(=O)[C@@H](CC(=O)N1CCOCC1)c1ccc(C(F)(F)F)cc1 with pKi of 7 or above?
1.0

Item CC(C)(C)OC(=O)N[C@@H](Cc1cccs1)C(=O)NCC#N with pKi of 7 or above?
0.0

Item CC(C)C[C@H](C(=O)NCC(=O)CNS(=O)(=O)c1ccc(Oc2ccccc2)cc1)c1cccc(-c2ccccc2)c1 with pKi of 7 or above?
0.0

Item COC[C@H](NC(=O)[C@H](CC(=O)NCC(C)(C)C)NS(=O)(=O)c1ccc(C)cc1)C(=O)N[C@@H](CC(C)C)C(=O)c1nnc(-c2ccccc2)o1 with pKi of 7 or above?
0.0

Item CC(C)C[C@H](NC(=O)OCc1ccccc1)C(=O)NC1CCCC1=O (some centres undefined) with pKi of 7 or above?
0.0

Item CCC[C@H](NC(=O)C1(NC(=O)c2ccc(OC(F)(F)F)cc2)CCCCC1)C(=O)c1nnc(-c2cccc(OC)c2)o1 with pKi of 7 or above?
0.0

Item CC(C)C[C@H](NC(=O)OCc1ccccc1)C(=O)NNC(=O)c1csc([C@H](CC(C)C)NC(=O)OCc2ccccc2)n1 with pKi of 7 or above?
0.0

Item CCC[C@H](NC(=O)C1(NC(=O)c2ccc(OC(F)(F)F)cc2)CCCCC1)C(=O)c1nnc(-c2ccc(C(F)(F)F)cc2)o1 with pKi of 7 or above?
0.0
